experiment: Solubilities of clonazepam in glycol ethers at 3 temperatures; settings: diethylene glycol monoethyl ether, neat solvent, 5 °C, organic solvent or mixture, thermodynamic from solid

| Smiles Repr | solubility, mg/mL |
| --- | --- |
| O=C1CN=C(c2ccccc2Cl)c2cc([N+](=O)[O-])ccc2N1 | 37.7 |

---

test: Solubilities of clonazepam in water-containing solvents; assay type: physicochemical; conditions: 25 °C, pH 6.8, aqueous with cosolvent or surfactant or cyclodextrin, kinetic from dmso stock, Di (ethylene glycol) methyl ether 60% solvent, 40% pH6.8 buffered water

| Smiles Repr | solubility |
| --- | --- |
| O=C1CN=C(c2ccccc2Cl)c2cc([N+](=O)[O-])ccc2N1 | 2800 µg/mL |
